Test: label from the status in PepcDB records
assay.metric: protein production

MIMINKTKRLMVSRQVKIPRKTYFWGPTPNPGMHPKDQSVTLLSIIRDYLKLSDKEREAARILANGLVKVDGKTVREKKFAVGFMDVIEINGESYRVVYNDQGALVLMKETKERASMKLLKVRSKVIAPGNRIQLGTHDGRTFITDDKSKKVGDVWAVSVPDMKISEIIKMQPGNKAYITAGSHVNQTGTISKIEAKEGSSANLVHFQEGFSTIKDHVFMIGSSKFSFVLSPEEVIPLEHHHHHH ... not failed
MAIDSKPHDDLQLFKTNLHPCGYWPDRWASDLVMDPNDPRLGAIYPQTLAWGFRRSGNLLYRPHCEHCNACVPVRVNVNAFVPNRSQRRCLARNATLVTRIVPAERNAEQLSLYRRYLHQRHPDGGMDGHGAIEFDQFLIGPWGYGRFMEIREPATNGTPGQLLAVAVTDLTHQALSAVYTFYEPNAAARGLGTLAILHQIHWAQREQRPYLYLGYWIKDHFKMDYKRRFQKLEIYDGYRWRPFSTTYPTTHTLLEHHHHHH ... not failed
MAIDPNSIGAVTEPMLFEWTDRDTLLYAIGVGAGTGDLAFTTENSHGIDQQVLPTYAVICCPAFGAAAKVGTFNPAALLHGSQGIRLHAPLPAAGKLSVVTEVADIQDKGEGKNAIVVLRGRGCDPESGSLVAETLTTLVLRGQGGFGGARGERPAAPEFPDRHPDARIDMPTREDQALIYRLSGDRNPLHSDPWFATQLAGFPKPILHGLCTYGVAGRALVAELGGGVAANITSIAARFTKPVFPGETLSTVIWRTEPGRAVFRTEVAGSDGAEARVVLDDGAVEYVAG ... not failed

* * *

Assay: label from the status in PepcDB records
assay.metric: protein production

MKKRHLLIAGLACMTILGACNNDDAGSSGQAVVEVDGHEISDAEFVDMLKERYGEAILQELVQRHLISQAADSVEIPQEEIDEELETFKSQIGVETDDEMLDALSNQFGITVENKEEFVNEYILPPLVLEKLAVEGVEITDEEKQAYFDENRDSLIEVEASHILVEDEETAEEVLDRLEAGDDFAELASEYSVDPSAEANNGDLGFFGKGDMVPEFEEAAFNMEIDEVSEPVESTYGYHIILVTDRKDSYEELEEKIHDTLMRERSRTQEEVLRDLLAQADINVLDDQFEGLFDLPDAPPVEDTPEIDGEDASDEAEDQAEDADENAEEEDES ... failed
MTQKRKLDAASPGDPHDFAADGIERQTLRMVEQALRADRLMLAWQPVVVASEAARTVFHEGLIRVLDETGRIIPARDFMSAVETQDLGRLIDCASLEKGLATLARHPGLRLSINMSARSIGHGRWMQILQGALRADPNLGPRLILEITESSAMEVPELVLPFMDALQRAGISFALDDFGAGFTAFRYLKDFFFDIIKIDGQFIRNIHRDPDNQVLTQAMLSVGRHFDMLTVAETVETAEEAEWLRAAGVDCLQGYLFGRPCTQPAWQATGTRLIA ... failed
MKMTAKMRREFPTAFLLLFLVPVMIPVGEAVWLDVPPTGTKCVSEEIQSNVVVLADYLIISEDHEVMPTISVKVTSPYGNNLHNMENVTHGQFAFTTQESGNYLACFWADEKSHGNKNVSINIDWRTGIAAKDWASIAKKEKIEGVELEIRKLEGAVEAIHENILYLRNREADMRTMSEKTNSRVAWYSIMSLGVCIAVSGFQVLYLKQYFEKKKLI ... failed
